Reported IC50 values are given for each entry in this list.
# ASSAY SYSTEM: T1, HLA-B60 (B*4001) (human)
# T1 construct: Acid-stripped B-LCL
# ASSAY REMARKS: cell competition vs KESTC(FI)HLVL, stripped DKB B-LCL, FACS

| BINDER | QUALIFIER SYMBOL | IC50 [nM] |
| --- | --- | --- |
| DEALAIAAL (also called start 37) [PRAME peptide DEALAIAAL] | = | 1550 |
| RELFPPLFM (also called start 50) [PRAME peptide RELFPPLFM] | = | 1480 |
| KDEALAIAAL (also called start 36) [PRAME peptide KDEALAIAAL] | = | 2910 |
| YEDIHGTLHL (also called start 448) [PRAME peptide YEDIHGTLHL] | < | 1000 |
